Protocol Notes: qHTS assay to identify small molecule antagonists of the sonic hedgehog signaling (Shh) pathway (AID 1259369); note: nearly all actives have a fitted effect of over 45% in size
Experimental Context: NIH/3T3 Gli1-Luc reporter, Shh antagonist, luminescence 24 h; series mostly up to 92.4 µM
Results filed as inconclusive are left out. Calls of active or inactive are those of the source. Calls come from the whole dose curve.
Give your call using only these classes: active, inactive

# count of solved cases: 3
CC(C)=C1CC[C@@H](C)CC1=O inactive
C=CC/C=C/C/C=C/C/C=C/C inactive
CC(=O)O[C@@H]1C[C@@H]2CC[C@@]1(C)C2(C)C inactive

Next, consider the following molecule.
I would be grateful if you could indicate the recorded call for O=C1C=CC(=O)N1c1ccccc1 .
active
